List of pEC50 values.
molecular target: human ferroportin (Homo sapiens); construct: luciferase reporter (read with the Nano-Glo Luciferase Assay System); expressed in transfected cells; host or cells: CHO cells, stably transfected, expression induced with doxycycline; assay: Biological in-vitro ferroportin internalization assay (luciferase reporter); assay type: cell-based; details: average pEC50; stably-transfected CHO cell line expressing human ferroportin tagged to a luciferase reporter; 6 h incubation with test compound
Sequence (Q9NP59 whole entry): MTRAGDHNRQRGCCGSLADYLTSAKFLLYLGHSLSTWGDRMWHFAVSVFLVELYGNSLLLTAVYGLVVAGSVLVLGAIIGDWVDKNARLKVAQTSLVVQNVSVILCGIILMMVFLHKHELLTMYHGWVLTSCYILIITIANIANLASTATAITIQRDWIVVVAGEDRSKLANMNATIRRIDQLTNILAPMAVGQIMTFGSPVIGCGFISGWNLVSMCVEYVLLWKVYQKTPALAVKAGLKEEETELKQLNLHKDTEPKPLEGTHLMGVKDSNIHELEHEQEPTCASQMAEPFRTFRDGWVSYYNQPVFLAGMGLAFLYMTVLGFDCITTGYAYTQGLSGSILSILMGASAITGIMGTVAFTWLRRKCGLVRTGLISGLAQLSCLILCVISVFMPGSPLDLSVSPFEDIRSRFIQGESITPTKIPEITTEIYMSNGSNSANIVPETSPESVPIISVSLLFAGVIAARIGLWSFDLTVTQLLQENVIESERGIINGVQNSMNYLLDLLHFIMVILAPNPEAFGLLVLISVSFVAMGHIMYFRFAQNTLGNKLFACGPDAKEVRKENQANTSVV
Property Label: pEC50

>>> df
                                   molecule  property_label  readout_value
0  CN(CC(=O)NC(C)(C)C)c1nc(-c2cc(OCC(O)CO)ccn2)nc2c1CCC2 (stereo in doubt)           pEC50            7.7
1  CC(C)(C)NC(=O)CN(CCO)c1nc(-c2ccccn2)nc2c1CCC2           pEC50            6.6
2  CN(Cc1ncnn1-c1cccc(F)c1)c1nc(-c2cc(OCCO)ccn2)nc2c1CCC2           pEC50            6.8
3  CN(CC(=O)NC(C)(C)C)c1nc(-c2cnc(O)cn2)nc2c1CCC2           pEC50            5.9
4  [2H]C([2H])([2H])N(CC(=O)NC(C)(C)C)c1nc(-c2cc(OCC(C)(C)O)ccn2)nc2c1CCC2           pEC50            8.2
5  CN(C)CCOc1ccnc(-c2nc3c(c(N(C)CC(=O)NC4CC4)n2)CCC3)c1           pEC50            7.3
6  CN(CC(=O)NC(C)(C)C)c1nc(-c2cc(C#N)ccn2)nc2c1CCC2           pEC50            6.2
7  Cc1ccnc(-c2nc3c(c(N(C)CC(=O)NC4(C)CCOC4)n2)CCC3)c1 (centres unmarked)           pEC50            7.6
